Tested on: MDA-MB-435
API: response.call in active, inactive

INPUT: So what was the verdict on COc1ccc(-c2nccn2-c2cc(OC)c(OC)c(OC)c2)cc1 in this test?
OUTPUT: active

INPUT: So what was the verdict on CCCCCCn1c(=N)n(CC(O)COc2cccc(C)c2)c2ccccc21 (centres undefined) in this test?
OUTPUT: inactive

INPUT: So what was the verdict on O=C(/C=C/CN1CCCCC1)Nc1cc2c(Nc3ccc(F)c(Cl)c3F)ncnc2cc1OCCOC(F)F in this test?
OUTPUT: inactive

INPUT: So what was the verdict on Oc1ccc(-c2nc(-c3ccc4oc5ccc(-c6[nH]c(-c7ccc(O)cc7)nc6-c6ccccc6)cc5c4c3)c(-c3ccccc3)[nH]2)cc1 in this test?
OUTPUT: inactive

INPUT: So what was the verdict on CN(C)CCCn1c2c(c3ccncc3c1=O)C(=O)c1ccccc1-2 in this test?
OUTPUT: inactive

INPUT: So what was the verdict on COc1cc2c(c(OC)c1OC)-c1c(c3ccc([N+](=O)[O-])cc3c(=O)n1CCCN=[N+]=[N-])C2=O in this test?
OUTPUT: inactive

INPUT: So what was the verdict on CN(C)c1ccc(/C=C/C(=O)c2ccc(Nc3nc(Nc4ccc(F)cc4)nc(Nc4ccc(Cl)cc4)n3)cc2)cc1 in this test?
OUTPUT: inactive

INPUT: So what was the verdict on Cn1c([N+](=O)[O-])cnc1/C=C1\Oc2ccc(Cl)cc2C1=O in this test?
OUTPUT: active

INPUT: So what was the verdict on C[CH2][Ge]1([CH2]C)[CH2]CC2(CCN(CCCN(C)C)C2)C[CH2]1 in this test?
OUTPUT: active
